// reported melting point for each item listed

- chem-smiles: "CCS(=O)(=O)Nc1ccc2c(c1)S(=O)(=O)C=C(c1c(O)c3cc(F)ccc3n(CCC3CC3)c1=O)N2"
  melting point: "140 to 142 °C"
- chem-smiles: "CC(=O)Nc1ccc2c(c1)S(=O)(=O)C=C(c1c(O)c3cc(F)ccc3n(Cc3ccc(F)cc3)c1=O)N2"
  melting point: "> 250 °C"
- chem-smiles: "CC(C)C[C@H]1C(O)=C(C2=CS(=O)(=O)c3ccccc3N2)C(=O)N1Cc1ccc(F)cc1"
  melting point: "160 °C (dec.)"
- chem-smiles: "CN(c1ccc2c(c1)S(=O)(=O)C=C(c1c(O)c3cc(F)ccc3n(Cc3ccc(F)cc3)c1=O)N2)S(C)(=O)=O"
  melting point: "214 to 218 °C"
- chem-smiles: "CN(C)C(=O)COc1ccc2c(c1)S(=O)(=O)C=C(c1c(O)c3cc(F)ccc3n(Cc3ccc(F)cc3)c1=O)N2"
  melting point: "> 250 °C"
- chem-smiles: "CC(C)(C)[C@H]1C(O)=C(C2=CS(=O)(=O)c3cc(N)ccc3N2)C(=O)N1CCC1CC1"
  melting point: "105 to 110 °C"
- chem-smiles: "CC(C)(C)[C@H]1C(O)=C(C2=CS(=O)(=O)c3cc([N+](=O)[O-])ccc3N2)C(=O)N1Cc1ccc(F)cc1"
  melting point: "138 to 147 °C"
- chem-smiles: "CS(=O)(=O)Nc1ccc2c(c1)S(=O)(=O)C=C(c1c(O)c3cc(F)ccc3n(Cc3ccc(F)c(C(F)(F)F)c3)c1=O)N2"
  melting point: "185.8 to 187 °C"
- chem-smiles: "CS(=O)(=O)Nc1ccc2c(c1)S(=O)(=O)C=C(c1c(O)c3cc(F)ccc3n(Cc3ccc(F)c(Cl)c3)c1=O)N2"
  melting point: "166 to 174 °C"
- chem-smiles: "O=c1c(C2=CS(=O)(=O)c3ccccc3N2)c(O)c2cc(F)ccc2n1Cc1ccc(F)c(F)c1.[Na]"
  melting point: "230 to 235 °C"

Data origin, for the record: patent US7479489B2
